molecular target: human 11β-HSD1 (Homo sapiens); construct: The obtained PCR products of about 0.9 kbp, 1.2 kbp, and 0.9 kbp were subcloned into an expression vector pcDNA3.1+/Zeo; expressed in transfected cells; experiment: Enzyme inhibitory activity, human 11β-HSD1 (lysate of stably expressing HEK293 cells, cortisol by competitive ELISA); assay type: biochemical; settings: Table 1; human 11β-HSD1, cell lysate, 37° C. for 1 hour; read-out: h HSD1 in vitro assay (IC50 uM)
Sequence (P28845 whole entry): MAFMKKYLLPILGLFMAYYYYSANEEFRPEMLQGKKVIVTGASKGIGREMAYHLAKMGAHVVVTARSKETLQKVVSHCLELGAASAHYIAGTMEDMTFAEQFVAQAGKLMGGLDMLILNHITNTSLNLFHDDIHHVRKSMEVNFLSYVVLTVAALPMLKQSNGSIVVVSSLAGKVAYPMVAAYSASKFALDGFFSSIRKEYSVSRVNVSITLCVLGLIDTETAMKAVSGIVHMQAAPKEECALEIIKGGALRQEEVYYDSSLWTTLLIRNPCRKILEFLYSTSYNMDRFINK
readout type: IC50 (µM)
Enter your answer as a number in µM; do not include the unit.

Tested on human 11β-HSD1 (Homo sapiens), the item CC1(C)C(=O)N(C2C3CC4CC(C3)CC2C4)N1c1ccc(Cl)cc1Cl (centres unmarked) showed IC50 equal to 0.02

human 11β-HSD1 (Homo sapiens) assay, compound CC1(C)C(=O)N([C@H]2C3CC4CC2C[C@@](O)(C4)C3)N1c1ccc2ccccc2c1 , recorded IC50 = 0.028

Tested system human 11β-HSD1 (Homo sapiens); IC50 recorded for CC1(C)C(=O)N([C@H]2C3CC4CC2C[C@](Cl)(C4)C3)N1c1cccc2ccccc12 was 0.012

// compound Cc1c(F)cccc1C(=O)N1N(C2C3CC4CC(C3)CC2C4)C(=O)C1(C)C (centres unmarked) , assay human 11β-HSD1 (Homo sapiens), IC50 value: 0.44

Test item COc1cccc(N2N(C3C4CC5CC(C4)CC3C5)C(=O)C2(C)C)c1 (centres unmarked) ; human 11β-HSD1 (Homo sapiens); reported IC50 was 0.16

Simply: CC1(C)C(=O)N([C@H]2C3CC4CC2C[C@@](C(=O)O)(C4)C3)N1c1cccc2ccccc12 , human 11β-HSD1 (Homo sapiens), IC50 = 0.05

Hey, human 11β-HSD1 (Homo sapiens) data for CC1(C)C(=O)N(C2C3CC4CC(C3)CC2C4)N1Cc1ccccc1I (centres unmarked) : IC50 came out at 0.012

Observed IC50, human 11β-HSD1 (Homo sapiens), CC1(C)C(=O)N(C2C3CC4CC(C3)CC2C4)N1C(=O)c1ccc(F)cc1C(F)(F)F (centres unmarked) : 0.66

Param item: COc1ccc(N2N([C@H]3C4CC5CC3C[C@@](O)(C5)C4)C(=O)C2(C)C)cc1 ; param system: human 11β-HSD1 (Homo sapiens); output IC50: 0.32

Item CC1(C)C(=O)N(C2CCCCCCC2)N1Cc1cc(F)ccc1Cl was tested on human 11β-HSD1 (Homo sapiens); the reported IC50 is 0.016

Summary: CC1(C)C(=O)N([C@H]2C3CC4CC2C[C@@](O)(C4)C3)N1c1ccccc1O , human 11β-HSD1 (Homo sapiens), IC50 = 0.81

# value of IC50, human 11β-HSD1 (Homo sapiens), item CC1(C)C(=O)N(C2C3CC4CC(C3)CC2C4)N1c1cccc(Cl)c1 (centres unmarked) = 0.093

Summary: CC1(C)C(=O)N(C2CCCCCCC2)N1Cc1cccc(Cl)c1Cl , human 11β-HSD1 (Homo sapiens), IC50 = 0.046

Observed IC50, human 11β-HSD1 (Homo sapiens), CC1(C)C(=O)N(C2C3CC4CC(C3)CC2C4)N1C(=O)c1cc(Cl)ccc1Br (centres unmarked) : 0.72

IC50 of CC1(C)C(=O)N(C2C3CC4CC(C3)CC2C4)N1C(=O)c1cc(Cl)ccc1Cl (centres unmarked) , assay on human 11β-HSD1 (Homo sapiens), is 0.32

Summary line: Cc1ccccc1C(=O)N1N(C2C3CC4CC(C3)CC2C4)C(=O)C1(C)C (centres unmarked) , human 11β-HSD1 (Homo sapiens), reported IC50 = 0.13

For CC1(C)C(=O)N(C2C3CC4CC(C3)CC2C4)N1c1ccccc1 (centres unmarked) on human 11β-HSD1 (Homo sapiens), measured IC50 was 0.062

Simply: CC1(C)C(=O)N(C2CCCCCCC2)N1c1cccc(Cl)c1Cl , human 11β-HSD1 (Homo sapiens), IC50 = 0.023

Record COc1ccccc1N1N(C2C3CC4CC(C3)CC2C4)C(=O)C1(C)C (centres unmarked) ; system human 11β-HSD1 (Homo sapiens); IC50 = 0.1

Entry CSc1ccccc1C(=O)N1N(C2C3CC4CC(C3)CC2C4)C(=O)C1(C)C (centres unmarked) , tested on human 11β-HSD1 (Homo sapiens), has a reported IC50 of 0.096

Fill in: human 11β-HSD1 (Homo sapiens) IC50 for Cc1ccc(C)c(C(=O)N2N(C3CCCCC3)C(=O)C2(C)C)c1 = 0.9

Recorded IC50 for CC1(C)C(=O)N(C2C3CC4CC(C3)CC2C4)N1c1cccc(Cl)c1Cl (centres unmarked) on human 11β-HSD1 (Homo sapiens) was 0.0061

IC50 of CC1(C)C(=O)N(C2C3CC4CC(C3)CC2C4)N1c1cccc2ccccc12 (centres unmarked) , assay on human 11β-HSD1 (Homo sapiens), is 0.032

Lab entry: human 11β-HSD1 (Homo sapiens) assay, compound CSc1ccccc1C(=O)N1N(C2CCCCCCC2)C(=O)C1(C)C , IC50 = 0.11

Record for CC1(C)C(=O)N(C2CCCCCCC2)N1Cc1ccc(F)cc1Cl under target or system human 11β-HSD1 (Homo sapiens): IC50 reported as 0.031

Record CC1(C)C(=O)N(C2C3CC4CC(C3)CC2C4)N1c1ccccc1Cl (centres unmarked) ; system human 11β-HSD1 (Homo sapiens); IC50 = 0.022

Simply: COCOc1ccc(N2N(C3C4CC5CC(C4)CC3C5)C(=O)C2(C)C)cc1 (centres unmarked) , human 11β-HSD1 (Homo sapiens), IC50 = 0.041

Entry COc1ccc(N2N(C3C4CC5CC(C4)CC3C5)C(=O)C2(C)C)cc1 (centres unmarked) under human 11β-HSD1 (Homo sapiens) had IC50 of 0.026

So the reported IC50 for CC1(C)C(=O)N(C2C3CC4CC(C3)CC2C4)N1C(=O)c1cccc2ccccc12 (centres unmarked) , on human 11β-HSD1 (Homo sapiens), turned out to be 0.071
